B1: library; a variant is named by its letters at X, in order (parent)
chain: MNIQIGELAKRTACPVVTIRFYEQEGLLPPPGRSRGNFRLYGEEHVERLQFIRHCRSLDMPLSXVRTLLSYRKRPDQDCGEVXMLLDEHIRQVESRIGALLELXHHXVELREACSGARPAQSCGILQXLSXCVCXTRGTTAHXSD

Variants of: B1
experiment_description: sfGFP reporter fluorescence (15 h) (µM FITC); higher = stronger transcriptional activation
condition_context: library round: Round 3; ligand: 30 µM Zn
assay_readout: sfGFP reporter fluorescence
# answer = number (no unit)

Use the examples below as a reference point.
DTKLGSPP Q121A = 0.32
DTKCGCDA = 1.51
DNVCIDDA M60L = 2.23
DTKLGDRR E109L = 0.224
DTKLGSRP V108L = 0.28

For the variant DTKLGAPW Q121A , what sfGFP reporter fluorescence is on record?
0.277

For the variant DCVLGDDP V16C H54A , what sfGFP reporter fluorescence is on record?
0.0484

For the variant DSKLGSPP V108L , what sfGFP reporter fluorescence is on record?
0.247

For the variant DTKCGADI , what sfGFP reporter fluorescence is on record?
2.16

For the variant DNVCMDDP Y41F P61N , what sfGFP reporter fluorescence is on record?
2.92

For the variant DTKLGSDP V108L H142A , what sfGFP reporter fluorescence is on record?
0.278
